# IC50 measurements, system: RON Kinase Enzyme (Homo sapiens)
# Sequence (Q04912 25-1400): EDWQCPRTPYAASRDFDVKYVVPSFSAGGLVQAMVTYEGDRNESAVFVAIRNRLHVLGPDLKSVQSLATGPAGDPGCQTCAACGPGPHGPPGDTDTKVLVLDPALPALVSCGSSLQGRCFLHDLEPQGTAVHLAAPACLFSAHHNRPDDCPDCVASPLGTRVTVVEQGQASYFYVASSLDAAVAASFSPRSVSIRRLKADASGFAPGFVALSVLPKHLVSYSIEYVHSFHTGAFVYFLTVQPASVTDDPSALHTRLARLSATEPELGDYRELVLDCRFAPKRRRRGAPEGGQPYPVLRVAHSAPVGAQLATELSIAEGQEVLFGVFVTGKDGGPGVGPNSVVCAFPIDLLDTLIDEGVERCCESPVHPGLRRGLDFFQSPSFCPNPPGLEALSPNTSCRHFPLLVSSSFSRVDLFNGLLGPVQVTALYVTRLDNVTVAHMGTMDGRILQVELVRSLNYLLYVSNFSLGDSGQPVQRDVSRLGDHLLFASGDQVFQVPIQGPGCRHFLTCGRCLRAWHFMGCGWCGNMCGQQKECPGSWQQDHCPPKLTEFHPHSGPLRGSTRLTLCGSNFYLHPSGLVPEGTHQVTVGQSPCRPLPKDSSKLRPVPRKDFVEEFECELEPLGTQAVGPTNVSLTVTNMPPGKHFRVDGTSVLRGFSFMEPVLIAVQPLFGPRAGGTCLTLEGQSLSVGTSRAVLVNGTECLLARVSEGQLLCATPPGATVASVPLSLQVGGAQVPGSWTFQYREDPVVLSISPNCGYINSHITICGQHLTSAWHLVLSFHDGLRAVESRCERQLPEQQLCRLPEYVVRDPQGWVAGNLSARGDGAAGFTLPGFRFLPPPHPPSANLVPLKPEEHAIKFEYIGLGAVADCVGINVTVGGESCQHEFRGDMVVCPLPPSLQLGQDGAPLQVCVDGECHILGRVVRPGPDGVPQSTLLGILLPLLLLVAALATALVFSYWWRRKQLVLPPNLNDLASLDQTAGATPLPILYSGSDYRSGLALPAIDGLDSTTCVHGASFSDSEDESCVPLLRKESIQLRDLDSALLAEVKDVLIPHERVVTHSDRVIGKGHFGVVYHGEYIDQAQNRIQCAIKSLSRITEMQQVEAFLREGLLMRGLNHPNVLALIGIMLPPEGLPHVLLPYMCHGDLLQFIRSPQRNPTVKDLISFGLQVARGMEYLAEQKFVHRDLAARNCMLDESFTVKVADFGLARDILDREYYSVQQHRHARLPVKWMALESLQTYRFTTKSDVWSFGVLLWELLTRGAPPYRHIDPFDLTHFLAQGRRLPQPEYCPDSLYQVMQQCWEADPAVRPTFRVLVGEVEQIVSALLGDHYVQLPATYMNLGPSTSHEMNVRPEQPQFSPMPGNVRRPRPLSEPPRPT
Just the number in nM, nothing appended.

The following molecules have reported results that may help.
INSERT INTO results (molecule, unit_symbol, readout_number) VALUES
  ('CCOc1ccn(-c2ccc(F)cc2)c(=O)c1C(=O)Nc1ccc(Oc2ccnc(NC(P(=O)(OCC)OCC)P(=O)(OCC)OCC)c2Cl)c(F)c1 [Compound 9]', 'nM', 33800),
  ('CCOc1ccn(-c2ccc(F)cc2)c(=O)c1C(=O)Nc1ccc(Oc2ccnc(N)c2Cl)c(F)c1 [BMS-777607, reference compound]', 'nM', 18),
  ('Nc1nccc(Oc2ccc(NC(=O)c3c(OCP(=O)([O-])[O-])ccn(-c4ccc(F)cc4)c3=O)cc2F)c1Cl.[Na+].[Na+] [Compound 10]', 'nM', 547),
  ('CCOc1ccn(-c2ccc(F)c(OP(=O)(O)O)c2)c(=O)c1C(=O)Nc1ccc(Oc2ccnc(N)c2Cl)c(F)c1 [Compound 12, phosphate]', 'nM', 58),
  ('CCOc1ccn(-c2ccc(F)c(OCCC(P(=O)(O)O)P(=O)(O)O)c2)c(=O)c1C(=O)Nc1ccc(Oc2ccnc(N)c2Cl)c(F)c1 [Compound 11]', 'nM', 1270);

Lab request: please report IC50 under test system RON Kinase Enzyme (Homo sapiens) for CCOc1ccn(-c2ccc(F)c(COP(=O)(O)O)c2)c(=O)c1C(=O)Nc1ccc(Oc2ccnc(N)c2Cl)c(F)c1 [Compound 13, phosphate]
2430

====

ASSAY_TARGET: RON/MST1R (Homo sapiens, UniProt Q04912)
Sequence (Q04912 25-1400): as above
EXPERIMENTAL_DETAILS: Ron tyrosine kinase inhibition assay (10 dose IC50 mode, 10 μM ATP)
CONDITION_CONTEXT: read-out: Compound IC50
pIC50 values by entry
Please express pIC50 as -log10 of the molar concentration.

INSERT INTO measurements (compound, endpoint_name, readout_number) VALUES
  ('CCOc1ccn(-c2ccc(F)cc2)c(=O)c1C(=O)Nc1ccc(Oc2ccnc(N)c2Cl)c(F)c1 [BMS-777607, reference compound]', 'pIC50', 7.76);

So what does the record say about pIC50 for CCOc1ccn(-c2ccc(F)cc2)c(=O)c1C(=O)Nc1ccc(Oc2ccnc(NC(P(=O)(O)O)P(=O)(O)O)c2Cl)c(F)c1 [Compound 1] ?
4.87

====

EXPERIMENTAL_DETAILS: Pharmacokinetic (PK) study of phosphate conjugates of BMS-777607 in male swiss albino mice
Assay type: in vivo
CONDITION_CONTEXT: male, Swiss Albino, mouse, in vivo, iv, 2 mg/kg, Plasma, 2 mg/kg single intravenous bolus, read-out: VSS
ENDPOINT_NAME: Vd (L/kg)
Just the number in L/kg, nothing appended.

So what does the record say about Vd for Nc1nccc(Oc2ccc(NC(=O)c3c(OCP(=O)([O-])[O-])ccn(-c4ccc(F)cc4)c3=O)cc2F)c1Cl.[Na+].[Na+] ?
0.179

====

EXPERIMENTAL_DETAILS: in vivo
Assay type: in vivo
CONDITION_CONTEXT: mouse, in vivo; Plasma; 2 mg/kg single intravenous bolus, male Swiss Albino mice
ENDPOINT_NAME: half-life
Number first, unit second: that is the form wanted.

So what does the record say about half-life for CCOc1ccn(-c2ccc(F)c(OP(=O)(O)O)c2)c(=O)c1C(=O)Nc1ccc(Oc2ccnc(N)c2Cl)c(F)c1 [Compound 12, phosphate] ?
1.17 h
